Measured On: human AR (androgen receptor) (Homo sapiens, UniProt P10275)
Construct: expressed in transfected cells; host or cells: 293 cells (293-AR lysate)
Sequence (P10275 1-920): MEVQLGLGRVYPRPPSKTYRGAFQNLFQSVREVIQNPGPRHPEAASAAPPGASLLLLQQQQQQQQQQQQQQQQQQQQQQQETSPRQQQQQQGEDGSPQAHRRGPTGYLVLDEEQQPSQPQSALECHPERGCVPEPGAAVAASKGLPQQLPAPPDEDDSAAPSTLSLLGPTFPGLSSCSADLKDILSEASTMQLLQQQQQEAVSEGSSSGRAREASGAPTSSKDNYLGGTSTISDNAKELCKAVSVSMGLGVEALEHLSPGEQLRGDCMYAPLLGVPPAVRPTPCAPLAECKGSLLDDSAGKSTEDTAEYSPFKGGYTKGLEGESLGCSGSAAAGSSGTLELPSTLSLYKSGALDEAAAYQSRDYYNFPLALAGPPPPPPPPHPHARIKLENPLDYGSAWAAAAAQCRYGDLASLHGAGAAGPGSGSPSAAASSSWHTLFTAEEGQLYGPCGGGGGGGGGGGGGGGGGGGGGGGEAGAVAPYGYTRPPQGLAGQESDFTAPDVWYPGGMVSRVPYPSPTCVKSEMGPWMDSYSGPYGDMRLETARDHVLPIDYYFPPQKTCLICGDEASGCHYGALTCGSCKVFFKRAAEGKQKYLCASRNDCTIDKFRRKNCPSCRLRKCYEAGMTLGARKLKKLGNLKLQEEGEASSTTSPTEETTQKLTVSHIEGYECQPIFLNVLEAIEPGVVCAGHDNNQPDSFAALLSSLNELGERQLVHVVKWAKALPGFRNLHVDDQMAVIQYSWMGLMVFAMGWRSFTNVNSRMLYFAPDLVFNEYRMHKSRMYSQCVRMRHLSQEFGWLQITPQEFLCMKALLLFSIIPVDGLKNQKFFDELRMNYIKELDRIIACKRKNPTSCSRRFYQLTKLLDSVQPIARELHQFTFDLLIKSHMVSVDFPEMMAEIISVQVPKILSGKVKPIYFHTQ
Assay Name: Steroid hormone nuclear receptor binding assay (AR binding)
Experimental Parameters: AR binding Ki (nM), 293-AR cell lysate, 3H-methyltrienolone competition

>  <Compound>
Cc1c(N2CCCC2c2cccc(S(C)(=O)=O)c2)ccc(C#N)c1Cl (stereo not shown)

>  <Measured On>
human AR (androgen receptor) (Homo sapiens, UniProt P10275)

>  <Ki>
3 nM

$$$$
>  <Compound>
COc1ccc(C2CCCN2c2ccc(C#N)c(Cl)c2C)cc1 (stereo not shown)

>  <Measured On>
human AR (androgen receptor) (Homo sapiens, UniProt P10275)

>  <Ki>
3.4 nM

$$$$
>  <Compound>
Cc1c(N2CCCC2c2ccc(Cl)cc2)ccc(C#N)c1Cl (stereo not shown)

>  <Measured On>
human AR (androgen receptor) (Homo sapiens, UniProt P10275)

>  <Ki>
4.3 nM

$$$$
>  <Compound>
Cc1c(N2CC(C)(C)CC2c2ccccc2)ccc(C#N)c1Cl (stereo not shown)

>  <Measured On>
human AR (androgen receptor) (Homo sapiens, UniProt P10275)

>  <Ki>
6.6 nM

$$$$
>  <Compound>
Cc1c(N2CCCC2c2cccnc2)ccc(C#N)c1Cl (stereo not shown)

>  <Measured On>
human AR (androgen receptor) (Homo sapiens, UniProt P10275)

>  <Ki>
1.3 nM

$$$$
>  <Compound>
CCC1CCC(c2ccccc2)N1c1ccc(C#N)c(Cl)c1C (mixture of isomers)

>  <Measured On>
human AR (androgen receptor) (Homo sapiens, UniProt P10275)

>  <Ki>
27.1 nM

$$$$
>  <Compound>
Cc1c(N2CCCC2c2cncnc2)ccc(C#N)c1Cl (stereo not shown)

>  <Measured On>
human AR (androgen receptor) (Homo sapiens, UniProt P10275)

>  <Ki>
2.8 nM

$$$$
>  <Compound>
Cc1c(N2CCCC2c2nnc(N)o2)ccc(C#N)c1Cl (stereo not shown)

>  <Measured On>
human AR (androgen receptor) (Homo sapiens, UniProt P10275)

>  <Ki>
18.7 nM

$$$$
>  <Compound>
Cc1c(N2CCCC2c2ccncc2)ccc(C#N)c1Cl (stereo not shown)

>  <Measured On>
human AR (androgen receptor) (Homo sapiens, UniProt P10275)

>  <Ki>
6 nM

$$$$
>  <Compound>
Cc1c(N2CCCC2c2ccccc2C(F)(F)F)ccc(C#N)c1Cl (stereo not shown)

>  <Measured On>
human AR (androgen receptor) (Homo sapiens, UniProt P10275)

>  <Ki>
72.9 nM

$$$$
>  <Compound>
COc1ccccc1C1CCCN1c1ccc(C#N)c(Cl)c1C (stereo not shown)

>  <Measured On>
human AR (androgen receptor) (Homo sapiens, UniProt P10275)

>  <Ki>
7 nM

$$$$
>  <Compound>
CCC1CCC(c2ccccc2)N1c1ccc(C#N)c(Cl)c1 (mixture of isomers) [Example 22]

>  <Measured On>
human AR (androgen receptor) (Homo sapiens, UniProt P10275)

>  <Ki>
4.9 nM

$$$$
>  <Compound>
CC1(C)CC(c2ccc3c(c2)OCO3)N(c2ccc(C#N)c(Cl)c2)C1 (stereo not shown)

>  <Measured On>
human AR (androgen receptor) (Homo sapiens, UniProt P10275)

>  <Ki>
12.7 nM

$$$$
>  <Compound>
N#Cc1ccc(N2CCCC2c2ccc3c(c2)OCO3)cc1C(F)(F)F (stereo not shown)

>  <Measured On>
human AR (androgen receptor) (Homo sapiens, UniProt P10275)

>  <Ki>
17.6 nM

$$$$
>  <Compound>
CCC1CCC(c2ccccc2)N1c1ccc(C#N)c(Cl)c1 (single isomer, unassigned) [Example 22d]

>  <Measured On>
human AR (androgen receptor) (Homo sapiens, UniProt P10275)

>  <Ki>
2.2 nM

$$$$
>  <Compound>
CCC1CCC(c2ccccc2)N1c1ccc(C#N)c(Cl)c1 (single isomer, unassigned) [Example 22a]

>  <Measured On>
human AR (androgen receptor) (Homo sapiens, UniProt P10275)

>  <Ki>
122 nM

$$$$
>  <Compound>
Cc1c(N2CCCC2c2ccc3c(c2)OCO3)ccc(C#N)c1Cl (stereo not shown)

>  <Measured On>
human AR (androgen receptor) (Homo sapiens, UniProt P10275)

>  <Ki>
2.2 nM

$$$$
>  <Compound>
COc1cccc(C2CCCN2c2ccc(C#N)c(Cl)c2C)c1 (stereo not shown)

>  <Measured On>
human AR (androgen receptor) (Homo sapiens, UniProt P10275)

>  <Ki>
1.1 nM

$$$$
>  <Compound>
Cc1c(N2CCCC2c2ccccn2)ccc(C#N)c1Cl (stereo not shown)

>  <Measured On>
human AR (androgen receptor) (Homo sapiens, UniProt P10275)

>  <Ki>
4.7 nM

$$$$
>  <Compound>
CCC1CCC(c2ccccc2)N1c1ccc(C#N)c(Cl)c1 (single isomer, unassigned) [Example 22b]

>  <Measured On>
human AR (androgen receptor) (Homo sapiens, UniProt P10275)

>  <Ki>
39.9 nM

$$$$
>  <Compound>
Cc1nnc(C2CCCN2c2ccc(C#N)c(Cl)c2C)o1 (stereo not shown)

>  <Measured On>
human AR (androgen receptor) (Homo sapiens, UniProt P10275)

>  <Ki>
3.7 nM

$$$$
>  <Compound>
CSc1cccc(C2CCCN2c2ccc(C#N)c(Cl)c2C)c1 (stereo not shown)

>  <Measured On>
human AR (androgen receptor) (Homo sapiens, UniProt P10275)

>  <Ki>
5.8 nM

$$$$
>  <Compound>
CCC1CCC(c2ccccc2)N1c1ccc(C#N)c(Cl)c1 (single isomer, unassigned) [Example 22c]

>  <Measured On>
human AR (androgen receptor) (Homo sapiens, UniProt P10275)

>  <Ki>
39.8 nM

$$$$
>  <Compound>
Cc1c(N2CC(O)CC2c2ccccc2)ccc(C#N)c1Cl (stereo not shown)

>  <Measured On>
human AR (androgen receptor) (Homo sapiens, UniProt P10275)

>  <Ki>
8.3 nM

$$$$
>  <Compound>
CC1(c2ccc3c(c2)OCO3)CCCN1c1ccc(C#N)c(Cl)c1 (stereo not shown)

>  <Measured On>
human AR (androgen receptor) (Homo sapiens, UniProt P10275)

>  <Ki>
27.3 nM

$$$$
>  <Compound>
CSc1ccc(C2CCCN2c2ccc(C#N)c(Cl)c2C)cc1 (stereo not shown)

>  <Measured On>
human AR (androgen receptor) (Homo sapiens, UniProt P10275)

>  <Ki>
13.4 nM

$$$$
>  <Compound>
N#Cc1ccc(N2CCCC2c2cccnc2)cc1Cl (stereo not shown)

>  <Measured On>
human AR (androgen receptor) (Homo sapiens, UniProt P10275)

>  <Ki>
17.4 nM

$$$$
>  <Compound>
Cc1c(N2CCCC2c2ccccc2)ccc(C#N)c1Cl (stereo not shown)

>  <Measured On>
human AR (androgen receptor) (Homo sapiens, UniProt P10275)

>  <Ki>
1.4 nM

$$$$
>  <Compound>
Cc1nnc(C2CCCN2c2ccc(C#N)c(Cl)c2C)[nH]1 (stereo not shown)

>  <Measured On>
human AR (androgen receptor) (Homo sapiens, UniProt P10275)

>  <Ki>
58.9 nM

$$$$
>  <Compound>
Cc1c(N2CCCC2c2nnco2)ccc(C#N)c1Cl (stereo not shown)

>  <Measured On>
human AR (androgen receptor) (Homo sapiens, UniProt P10275)

>  <Ki>
5.4 nM

$$$$
>  <Compound>
Cc1noc(C2CCCN2c2ccc(C#N)c(Cl)c2C)n1 (stereo not shown)

>  <Measured On>
human AR (androgen receptor) (Homo sapiens, UniProt P10275)

>  <Ki>
1.9 nM

$$$$
>  <Compound>
COc1cccc(C2(C)CCCN2c2ccc(C#N)c(Cl)c2)c1 (stereo not shown)

>  <Measured On>
human AR (androgen receptor) (Homo sapiens, UniProt P10275)

>  <Ki>
24.4 nM

$$$$
>  <Compound>
Cc1nnc(C2CCCN2c2ccc(C#N)c(Cl)c2C)s1 (stereo not shown)

>  <Measured On>
human AR (androgen receptor) (Homo sapiens, UniProt P10275)

>  <Ki>
9 nM

$$$$
>  <Compound>
Cc1c(N2CCCC2c2ccc(F)cc2)ccc(C#N)c1Cl (stereo not shown)

>  <Measured On>
human AR (androgen receptor) (Homo sapiens, UniProt P10275)

>  <Ki>
2.7 nM

$$$$
